For reference, pIC50 measured on Proto-oncogene tyrosine-protein kinase Src (Homo sapiens):
Give bare numbers, as −log10 of the molar value.

For every listed record, write down its pIC50.
1. COc1cc(Nc2c(C#N)cnc3cc(/C=C/c4ccc(CN(C)C)cc4)c(OC)cc23)c(Cl)cc1Cl
2. COc1cc(Nc2c(C#N)cnc3cc(/C=C/c4ccc(CN(C)C)cn4)c(OC)cc23)c(Cl)cc1Cl
3. COc1cc(Nc2c(C#N)cnc3cc(/C=C/CCCN4CCOCC4)c(OC)cc23)c(Cl)cc1Cl
4. COc1cc(Nc2c(C#N)cnc3cc(/C=C/c4cc(CN(C)C)ccn4)c(OC)cc23)c(Cl)cc1Cl
5. COc1cc(Nc2c(C#N)cnc3cc(/C=C/CN4CCOCC4)c(OC)cc23)c(Cl)cc1Cl
6. COc1cc(Nc2c(C#N)cnc3ccc(/C=C/CCN4CCOCC4)cc23)c(Cl)cc1Cl
7. COc1cc(Nc2c(C#N)cnc3cc(/C=C/CCN(C)C)c(OC)cc23)c(Cl)cc1Cl
8. N#Cc1cnc2ccc(/C=C/CCN3CCOCC3)cc2c1Nc1ccc(Cl)cc1Cl

[8.62, 8.66, 8.27, 8.17, 8.06, 6.47, 8.60, 5.92]

For every listed record, write down its pIC50.
1. COc1cc(Nc2c(C#N)cnc3cc(/C=C/CCN4CCOCC4)ccc23)c(Cl)cc1Cl
2. COc1cc(Nc2c(C#N)cnc3cc(/C=C/CCN4CCCCC4)c(OC)cc23)c(Cl)cc1Cl

7.82
8.59

src = ChEMBL document CHEMBL1157919
